Hi there, I'd appreciate the recorded phenotypically active for every entry that follows.
test system: A549-TP53BP1-CLTA; test: phenotypically active (imaging signature differs from DMSO and reproducible) at any of 0.3-9 uM (binary (1 = active, 0 = inactive)); higher = active; conditions: treatment time: 24 h
Answers are plain numbers.

Field: example entries. Status: answers known.
[
  {
    "molecule": "O=c1c(-c2ccc(O)cc2)coc2cc(O[C@@H]3O[C@H](CO)[C@@H](O)[C@H](O)[C@H]3O)cc(O)c12",
    "systemTested": "A549-TP53BP1-CLTA",
    "phenotypically active": 1
  },
  {
    "molecule": "O=C1NC(=O)C(c2ccccc2)(c2ccccc2)N1",
    "systemTested": "A549-TP53BP1-CLTA",
    "phenotypically active": 0
  },
  {
    "molecule": "O=C1Cc2c([nH]c3ccc(Br)cc23)-c2ccccc2N1",
    "systemTested": "A549-TP53BP1-CLTA",
    "phenotypically active": 1
  },
  {
    "molecule": "Cc1ccc(-n2nc(C(C)(C)C)cc2NC(=O)Nc2ccc(OCCN3CCOCC3)c3ccccc23)cc1",
    "systemTested": "A549-TP53BP1-CLTA",
    "phenotypically active": 1
  }
]

// for each molecule in input: emit phenotypically active
1. NC(=O)c1cccc(N)c1 [3-Aminobenzamide]
2. CN([C@H]1c2cc(OCCCC(F)(F)F)ccc2OC(C)(C)[C@@H]1O)S(C)(=O)=O
3. O=C(O)c1cc(/N=N/c2ccc(S(=O)(=O)Nc3ccccn3)cc2)ccc1O

Result block:
1. 0
2. 0
3. 0

Can you give me phenotypically active for all of these, one by one?
1. CN(C)CCCN1c2ccccc2CCc2ccc(Cl)cc21
2. COc1nc(N)nc2c1ncn2[C@@H]1O[C@H](CO)[C@@H](O)[C@@H]1O

Result block:
1. 0
2. 0

* * *

tested on: WPMY1-CANX-COX4; experiment: phenotypically active (imaging signature differs from DMSO and reproducible) at any of 0.3-9 uM (binary (1 = active, 0 = inactive)); higher = active; conditions: treatment time: 24 h
Where a name gives a salt, the structure may show the parent alone.
A correct response names exactly one class from true (1) (active), false (0) (inactive)

The following compounds have reported results that may help.
[
  {
    "compound": "CCCC(=O)Nc1ncnc2c1ncn2[C@@H]1O[C@@H]2COP(=O)(O)O[C@H]2[C@H]1OC(=O)CCC [Dibutyryl-cAMP, sodium salt]",
    "label": "false (0)"
  },
  {
    "compound": "CCN1C(C)(C)CC(Oc2ccc(C(=O)Nc3ccc(NC(=O)Nc4cc(C(C)(C)C)on4)cc3)nc2)CC1(C)C",
    "label": "false (0)"
  },
  {
    "compound": "COC(=O)Nc1nc2ccc(C(=O)c3cccs3)cc2[nH]1",
    "label": "true (1)"
  },
  {
    "compound": "C#C[C@]1(OC(C)=O)CC[C@H]2[C@@H]3CCC4=CC(=NO)CC[C@@H]4[C@H]3CC[C@@]21CC [norgestimate]",
    "label": "false (0)"
  },
  {
    "compound": "CC(=O)/N=c1/sc(S(N)(=O)=O)nn1C [methazolamide]",
    "label": "false (0)"
  }
]

Query block: Hi, sorry to bother you, what did the test record for CC[N+](C)(C)c1cccc(O)c1 ?
Result block: false (0)

Query block: Further, for Cc1cc(C(=O)Nc2cccc(C(=O)Nc3cccc(C(F)(F)F)c3)c2)on1 ?
Result block: false (0)

Query block: # repeat for Cc1ccc(/C(=C/CN2CCCC2)c2cccc(/C=C/C(=O)O)n2)cc1
Result block: true (1)

Query block: Check CC[N@@+]1(C)[C@@H]2CC[C@H]1C[C@@H](OC(=O)[C@]1(c3ccccc3)CC[C@H](C(=O)O[C@H]3C[C@H]4CC[C@@H](C3)[N@+]4(C)CC)c3ccccc31)C2 [beta- Belladonnine dichloroethylate] too.
Result block: false (0)

Query block: Now consider COc1cc2c(Nc3ccc(Br)cc3F)ncnc2cc1OCC1CCN(C)CC1 .
Result block: true (1)

Query block: One more compound: OC(CCN1CCCCC1)(c1ccccc1)C1CCCCC1 (stereo unspecified)
Result block: false (0)

Query block: Now the same for COc1cc(/C=C/C(=O)N2CCC=CC2=O)cc(OC)c1OC
Result block: true (1)

Query block: Now this one: CC(=O)O[C@H]1C[C@@H]2CC[C@@H]3[C@H](CC[C@@]4(C)[C@H]3C[C@H]([N+]3(C)CCCCC3)[C@@H]4OC(C)=O)[C@@]2(C)C[C@@H]1N1CCCCC1
Result block: false (0)

Query block: Then what about the compound CC(C)N(CCC(=O)c1ccc2ccccc2c1)Cc1ccccc1 ?
Result block: false (0)

Query block: # repeat for CNC(=O)c1c(-c2ccc(F)cc2)oc2cc(N(CCO)S(C)(=O)=O)c(C3CC3)cc12
Result block: false (0)

Query block: Can you check CC(C)(C)NS(=O)(=O)c1cncc(-c2cc(F)c3nc(N)nn3c2)c1 next?
Result block: false (0)
